Cited source: patent US10214492B2

- ASSAY_SUMMARY: Pharmacokinetic assay in rat (IV 3 mg/kg, PO 10 mg/kg)
- Assay type: in vivo
- ASSAY_SETUP: Male Sprague-Dawley rat, oral bioavailability, PO 10 mg/kg
Classify by measured Rat F: t if it is equal to or exceeds 90%, f if it is smaller.

Study these solved cases before continuing.
MOLECULE | CLASSIFICATION
CC[C@@](C)(OCc1cc(-c2cccc(OC3CC3)c2)n(-c2ccccc2N2CCC2)n1)C(=O)O [Example 266] | t
COc1cc(OC)cc(-c2cc(COC(C)(C)C(=O)O)nn2-c2ccccc2N2CCC2)c1 [Example 251] | t
CC(C)COc1cccc(-c2cc(COC(C)(C)C(=O)O)nn2-c2cccc3cnn(C)c23)c1 [Example 170] | f
CCn1ncc2ccc(-c3cc(CO[C@](C)(CC)C(=O)O)nn3-c3ccccc3N3CCCC3)cc21 [Example 268] | f

Is Rat F for CC(C)(OCc1cc(-c2cccc(OC3CCC3)c2)n(-c2ccccc2N2CCC2)n1)C(=O)O [Example 260] at or above 90%? f

Is it the case that COc1cccc(-c2cc(COC(C)(C)C(=O)O)nn2Cc2ccccc2Cl)c1 [Example 14] has Rat F reaching or exceeding 90%? f

Is Rat F for CCn1ncc2ccc(-c3cc(COC(C)(C)C(=O)O)nn3-c3ccccc3N3CCC3)cc21 [Example 228] at or above 90%? t

Say whether CCOc1ccccc1Cn1nc(CO[C@](C)(CC)C(=O)O)cc1-c1cc(OC)cc(OC)c1 [Example 264] shows Rat F of 90% or more. t

* * *

- ASSAY_SUMMARY: Metabolic stability in human liver microsomes (in vitro t1/2)
- Assay type: in vitro ADME
- ASSAY_SETUP: human liver microsomes 0.5 mg/mL, 2 μM compound; read-out: Human microsome t1/2, min
TEST_READOUT: half-life at 2 µM (h)
// units = h; emit number, no label

COMPOUND | UNIT_LABEL | half-life at 2 µM
CC(C)(OCc1cc(-c2cccc(OC3CC3)c2)n(-c2ccccc2N2CCC2)n1)C(=O)O [Example 232] | h | 1.62
Cn1ncc2cccc(-n3nc(COC(C)(C)C(=O)O)cc3-c3cccc(OCC4CCC4)c3)c21 [Example 168] | h | 3.12
CCn1ncc2ccc(-c3cc(COC(C)(C)C(=O)O)nn3Cc3ccccc3Cl)cc21 [Example 150] | h | 5.68
CC(C)COc1ncc(-c2cc(COC(C)(C)C(=O)O)nn2Cc2ccccc2Cl)s1 [Example 132] | h | 1.93

// half-life at 2 µM lookup, key: CCOc1ccccc1Cn1nc(COC(C)(C)C(=O)O)cc1-c1cc(Cl)cc(OC)c1 [Example 196] 1.47

For the compound shown here, CC(C)(OCc1cc(-c2cccc(OC3CC3)c2)n(-c2ccc(F)cc2N2CCC2)n1)C(=O)O [Example 183] , give the reported half-life at 2 µM. 1.65

Please give the measured half-life at 2 µM for this compound: CCn1ncc2ccc(-c3cc(COC(C)(C)C(=O)O)nn3-c3ccccc3N3CCC3)cc21 [Example 228] 2.17

* * *

- TARGET_UNDER_TEST: MCT4 (Homo sapiens (Human))
- Sequence (O15427 whole entry, looked up): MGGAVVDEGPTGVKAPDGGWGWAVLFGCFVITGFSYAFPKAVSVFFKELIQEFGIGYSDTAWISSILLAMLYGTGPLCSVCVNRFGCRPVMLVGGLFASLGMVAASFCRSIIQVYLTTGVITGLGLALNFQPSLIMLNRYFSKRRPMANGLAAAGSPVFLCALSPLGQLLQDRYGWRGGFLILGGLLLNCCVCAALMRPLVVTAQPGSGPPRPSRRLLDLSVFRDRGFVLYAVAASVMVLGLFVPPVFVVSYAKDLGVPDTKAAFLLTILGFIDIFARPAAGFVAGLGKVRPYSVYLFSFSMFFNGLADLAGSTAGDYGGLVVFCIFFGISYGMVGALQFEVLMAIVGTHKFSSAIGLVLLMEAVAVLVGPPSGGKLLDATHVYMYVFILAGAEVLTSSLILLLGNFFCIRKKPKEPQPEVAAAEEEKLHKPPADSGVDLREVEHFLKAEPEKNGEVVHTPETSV
- Sequence (P35613 whole entry partner, looked up): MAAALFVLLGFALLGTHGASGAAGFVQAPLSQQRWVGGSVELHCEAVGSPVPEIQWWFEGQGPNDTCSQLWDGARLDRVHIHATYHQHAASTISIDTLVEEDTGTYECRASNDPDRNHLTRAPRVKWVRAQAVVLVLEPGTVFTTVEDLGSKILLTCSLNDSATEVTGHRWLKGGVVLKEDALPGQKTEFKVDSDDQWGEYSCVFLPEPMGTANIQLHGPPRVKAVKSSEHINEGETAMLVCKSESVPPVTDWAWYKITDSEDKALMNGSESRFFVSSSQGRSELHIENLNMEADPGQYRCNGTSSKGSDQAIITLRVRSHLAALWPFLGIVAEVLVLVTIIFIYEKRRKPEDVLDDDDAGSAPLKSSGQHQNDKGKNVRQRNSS
- ASSAY_SUMMARY: Assay 3: MCT4-mediated lactate transport in MDA-MB-231 breast cancer cells
- Assay type: cell-based
- ASSAY_SETUP: MDA-MB-231 cells; lactate transport
- Description: 10 μL of a 30 mM DMSO stock of BCECF-AM ester (Life Technologies) is added and the cells are incubated at 37° C. for 5 min. […] MCT4 activity may be assessed by monitoring the intracellular pH change that accompanies lactate/proton symport, using the pH-sensitive fluorescent dye 2′,7′-bis-(carboxyethyl)-5(6)-carboxyfluorescein (BCECF), in a manner similar to that previously reported for MCT1 and MCT4. […]
TEST_READOUT: IC50 (nM)
The answer is to be given in nM; state only the numeric part.

COMPOUND_STRUCTURE_STRING | UNIT_LABEL | IC50
CC(C)(C)COc1cccc(-c2cc(COC(C)(C)C(=O)O)nn2-c2cccc3cccnc23)c1 | nM | 19
CN(C)c1ccccc1-n1nc(COC(C)(C)C(=O)O)cc1-c1cccc(OC2CC2)c1 | nM | 4.3

Entry under review: CC[C@@](C)(OCc1cc(-c2cccc(OC3CC3)c2)n(-c2ccccc2Cl)n1)C(=O)O . Reported IC50? 9.1

Quick check: IC50 of COc1cc(OC)cc(-c2cc(COC(C)(C)C(=O)O)nn2-c2ccccc2N2CCCC2)c1 ? 4.5
